meta.source: PubChem BioAssay AID624267

Each entry below carries its reported inhibition.
biological target: Receptor-interacting serine/threonine-protein kinase 2 (Homo sapiens) (UniProt O43353); test: inhibitors of RIPK2 association with NOD2 – fluorescence, CHO cells, BLA complementation, primary screen (AID 624267); settings: CHO BLA complementation NOD2-RIPK2, CCF4 ratio; at 4.98 µM; active compounds read high;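 also: 0% = vehicle only and 100% = reference blocker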
Sequence (O43353 whole entry, looked up): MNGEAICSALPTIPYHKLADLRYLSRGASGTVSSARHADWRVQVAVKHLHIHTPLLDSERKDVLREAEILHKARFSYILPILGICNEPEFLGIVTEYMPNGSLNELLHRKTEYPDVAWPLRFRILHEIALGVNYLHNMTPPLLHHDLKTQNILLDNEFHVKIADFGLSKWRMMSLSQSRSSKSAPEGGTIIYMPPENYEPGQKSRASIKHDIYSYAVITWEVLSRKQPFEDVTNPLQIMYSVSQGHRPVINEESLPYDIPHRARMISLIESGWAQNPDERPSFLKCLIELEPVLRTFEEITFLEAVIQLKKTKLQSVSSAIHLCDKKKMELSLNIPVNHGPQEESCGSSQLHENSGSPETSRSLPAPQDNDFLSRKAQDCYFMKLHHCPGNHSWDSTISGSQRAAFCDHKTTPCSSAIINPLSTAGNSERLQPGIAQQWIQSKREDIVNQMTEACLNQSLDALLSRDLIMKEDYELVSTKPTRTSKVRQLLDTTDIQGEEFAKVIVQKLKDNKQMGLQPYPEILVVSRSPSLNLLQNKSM
Screen size: about 360,000 compounds; about 1,400 (0.39%) were called active. What follows is part of a selection rich in actives, with near analogues and random picks from the rest.
Readout Name: inhibition (%)

O=[N+]([O-])c1ccc(COc2ccccc2CN2CCOCC2)cc1: -0.03
COC(=O)c1ccccc1N=NNc1ccc([N+](=O)[O-])cc1: 2.92
Cc1ncoc1C(=O)N1CCCC(C(=O)c2ccc3c4c(cccc24)CC3)C1 (stereo not given): 1.4
COc1cc(C)c(C(C)C)cc1S(=O)(=O)n1ccnc1: -1.8
COc1ccccc1C(=O)NC(CCSC)C(=O)N1CCN(C/C=C/c2ccccc2)CC1 (stereo not given): 0.75
Cc1cccc(OC(C)C(=O)N2CCc3ccccc3C2)c1 (stereo not given): -10.7
CSc1ccccc1NC(=O)c1cnc2sc(C)cn2c1=O: -0.62
CC(C)N1C(=O)c2ccccc2NC(=O)C1C(=O)NCc1cccs1 (stereo not given): -11.7
CC(C=Cc1ccccc1)=NNS(=O)(=O)c1ccc([N+](=O)[O-])cc1: 3.79
CC(C)(C)OC(=O)N1CCC(NC(=O)c2[nH]cnc2C(=O)N[C@@H](Cc2ccccc2)C(=O)OCc2ccccc2)CC1: 30.1

###

biological target: Receptor-interacting serine/threonine-protein kinase 2 (Homo sapiens) (UniProt O43353); assay: inhibitors of RIPK2 association with NOD2 – fluorescence, CHO cells, BLA complementation, primary screen (AID 624267); conditions: CHO BLA complementation NOD2-RIPK2, CCF4 ratio; at 4.98 µM; active compounds read high;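 also: 0% = vehicle only and 100% = reference blocker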
About 1,400 (0.39%) of roughly 360,000 compounds were called active. This is one part of a sample in which actives are shown more often than they occur.
Readout Name: inhibition

COc1ccc(CCNS(=O)(=O)c2ccc(F)cc2)cc1OC: -9.46% (inactive)
CCOc1ccccc1NC(=O)CCS(=O)(=O)c1cccc2nsnc12: 5.35% (inactive)
CCOc1ccccc1C1CC(c2ccccc2)Nc2nc(N)nn21 (stereo not drawn): -8.78% (inactive)
COc1cccc(C(=O)NNC(=O)/C=C/c2ccccc2)c1: -14.4% (inactive)
O=C(O)CCS(=O)(=O)c1ccc(-c2ccccc2)cc1: -5.35% (inactive)
COc1cccc(CNC(=O)COC(=O)CN2C(=O)NC3(CCCCC3C)C2=O)c1 (stereo not drawn): -6.08% (inactive)
COc1cc(C=NC2CCCCC2)ccc1O: 0.2% (inactive)
CCOC(=O)c1c(NC(=O)C2CCN(S(=O)(=O)c3ccc(Cl)cc3)CC2)sc2c1CCCC2: 4.57% (inactive)
Cc1cccc2sc(N(CCCN(C)C)C(=O)CCS(=O)(=O)c3ccccc3)nc12: 24.6% (active)
CC(C)(C)C(=O)/C(C#N)=C/c1ccc(O)cc1: -19.2% (inactive)
O=[N+]([O-])c1ccc(C(S(=O)(=O)Cc2ccccc2)S(=O)(=O)Cc2ccccc2)cc1: -0.41% (inactive)
Cc1csc(NC(=O)C2CCCN2C(=O)OCC(C)C)n1 (stereo not drawn): -2.47% (inactive)
COc1ccc(-c2cnc(SCCNC(=O)c3ccc4c(c3)OCO4)[nH]2)cc1: -2.11% (inactive)
CC(=O)N1c2ccccc2N(Cc2ccc([N+](=O)[O-])cc2)C(=O)C1(C)C: -3.82% (inactive)
COCCCNC(=O)CN1CCN(Cc2ccccc2Cl)C1=O: 5.43% (inactive)
COc1cccc(-c2cnc(C(O)c3ccccc3OC)[nH]2)c1 (stereo not drawn): -4.35% (inactive)
CCc1ccc(OC2(C)CCN(CCOc3ccc(C)cc3)C2)cc1 (stereo not drawn): 0.79% (inactive)
Brc1ccc(C2=CC(c3ccco3)n3ncnc3N2)cc1 (stereo not drawn): 24.6% (active)
O=C(NC(=S)NC1CCSC1=O)c1ccccc1F (stereo not drawn): -9.93% (inactive)
Cc1ccccc1CS(=O)(=O)CC1(O)CCN(C(=O)c2cccc(C(F)(F)F)c2)CC1: -2.24% (inactive)
COCCCNC(=S)N1CCCC(c2nc3cc(C)c(C)cc3[nH]2)C1 (stereo not drawn): -3.68% (inactive)
O=C(/C=C(O)/C=C/c1ccc(O)cc1)/C=C/c1ccc(O)cc1: 56.9% (active)
CCOC(=O)C1=C(C)Nc2sc(C(=O)c3ccc(Br)cc3)c(N)c2C1c1ccc(C(=O)OC)cc1 (stereo not drawn): 27% (active)

###

target: Receptor-interacting serine/threonine-protein kinase 2 (Homo sapiens) (UniProt O43353); test: inhibitors of RIPK2 association with NOD2 – fluorescence, CHO cells, BLA complementation, primary screen (AID 624267); conditions: CHO BLA complementation NOD2-RIPK2, CCF4 ratio; at 4.98 µM;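 also: 0% = vehicle only and 100% = reference blocker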
Out of some 360,000 compounds screened, about 1,400 (0.39%) were called active. Rule as the data show it: active = inhibition above about 21%; inactive = the rest. Many of the other results were omitted from the sample, so actives are more common in it than they were.
Outcome codes: T (active), F (inactive)

O=C(Cn1nc(C(=O)O)c2ccccc2c1=O)Nc1ccc(F)cc1: F
CCOC(=O)C1=C(C)N(C[C@@H]2CC[C@@H](Cc3ccc(-c4ccccc4)cc3)O2)C(=O)NC1c1ccc([N+](=O)[O-])cc1 (stereo partly drawn): T
CC(=O)Nc1ccc(C=Cc2ccc([N+](=O)[O-])cc2)cc1: T
COc1ccccc1Oc1ccc(N2CC(C(=O)OCC(=O)c3ccc(F)cc3)CC2=O)cc1 (stereo not drawn): F
Nc1cccc2c1C(=O)N(Cc1nnc(-c3ccccc3Br)o1)C2=O: T
O=C(O)/C=C/C(=O)NNc1ccc([N+](=O)[O-])cc1: F
O=C1C(=O)N(CC2COc3ccccc3O2)c2ccccc21 (stereo not drawn): T
COc1ccc(OC)c(CN2C(=O)CCC2(C)C(=O)NC2CCCCCC2)c1 (stereo not drawn): F
O=C(Cc1ccccc1)Nc1c(Cl)ccc2nsnc12: F
CC(Oc1ccccc1)C(=O)Nc1oc(-c2ccco2)c(-c2ccco2)c1C#N (stereo not drawn): F
O=C(COC(=O)c1ccccc1NC(=O)c1ccco1)Nc1ccc2c(c1)OC(F)(F)O2: F
CCOc1ccc(S(=O)(=O)NCc2ccc3c(c2)OCO3)cc1C: F
CC1(C)NC(=O)N(CC(=O)Nc2ccc(-c3ccccc3)cc2)C1=O: F
Cc1nn(C)cc1N1C(=O)c2cccc3c(N)ccc(c23)C1=O: T
CC(C)(C)NC(=O)COC(=O)c1cc(Br)ccc1Cl: F
CC1CCN(C(=O)c2ccccc2NC(=O)Cc2ccccc2)CC1: F
O=C(CNC(=O)c1ccccc1)NCC(=O)OCc1ccc(Cl)cc1: F
CNC(=S)N/N=C/c1ccc(OCc2ccccc2)c(Br)c1: T
O=S(=O)(Nc1ccccn1)c1cccc(S(=O)(=O)c2ccc(Cl)cc2)c1: F
CCC(CC)COC(=O)C1=C(C)NC(=O)NC1c1ccc([N+](=O)[O-])cc1 (stereo not drawn): F
COc1cc(/C=N/NC(=O)Nc2ccccc2)ccc1OCCOc1ccccc1C: F
Cc1ccnc(NC(=O)CCC(=O)N(CC(=O)NCCc2ccccc2)Cc2cccs2)c1: F
CC[C@H]1CN2CCc3cc(OC)c(OC)cc3[C@@H]2C[C@@H]1C[C@H]1NCCc2cc(OC)c(OC)cc21: T
Cc1ccccc1CNC(=O)CCC(=O)N1Cc2ccccc2Oc2ncccc21: F
CCOC(=O)Cc1c(C)nc2c(C#N)c(C)nn2c1C: F
Cc1ccc(NS(=O)(=O)c2ccc(C(=O)NCCCN3CCOCC3)cc2)cc1: F
COc1ccc2c(c1OC)C(=O)OC2Nc1nc(-c2ccccc2)cs1 (stereo not drawn): T
CC(C)(C)C1CCC(C(=O)NCC(c2cccs2)N2CCOCC2)CC1 (stereo not drawn): F
O=C(CCNc1n[nH]c(=O)[nH]c1=O)N/N=C\c1ccc(Br)cc1: F
COc1ccc2ccccc2c1CNCc1ccccn1: F
COc1ccccc1C(=O)NCCC(=O)NC1=NCCS1: F
CCc1nnc(NC(=O)CSc2nc3c(c(=O)n2-c2ccccc2OC)SCC3)s1: F
COc1ccc(C(CNC(=O)COc2ccc([N+](=O)[O-])cc2)N2CCCCC2)cc1 (stereo not drawn): F
CCOC(=O)C1=C(c2ccccc2)NC(=O)NC1c1cc(OCC)c(O)c([N+](=O)[O-])c1 (stereo not drawn): F
O=C(OCc1nnc(-c2ccccc2)o1)c1ccc2c(c1)C(=O)N(CCc1ccccc1)C2=O: F
O=C(CNC(=O)Cc1ccccc1)NCC(=O)OCC(=O)c1ccccc1Cl: F
Fc1ccc(N2N=C(c3cccs3)CC2c2ccco2)c(F)c1 (stereo not drawn): F
COc1ccc(C2CC(c3cccs3)=NN2c2nc(C)c(C(C)=O)s2)cc1OC (stereo not drawn): F
O=C(O)COc1ccc(/C=N/O)cc1Br: F
COc1ccccc1C(=O)Nc1nc2nc(-c3ccccc3)cc(=O)n2[nH]1: F
COc1cc(C(O)c2nc(-c3cccc(C(=O)O)c3)cs2)ccc1F (stereo not drawn): F
CCCn1nc(Oc2nc(NC(C)C)nc(N(C)C)n2)ccc1=O: F
O=C1N(c2ccc(Cl)cc2)C(c2ccc(Cl)cc2)N2CCCN12 (stereo not drawn): F
